- Target system: UniProt Q5S007
- Sequence (Q5S007 other isoform, or with tags, fused parts or gaps): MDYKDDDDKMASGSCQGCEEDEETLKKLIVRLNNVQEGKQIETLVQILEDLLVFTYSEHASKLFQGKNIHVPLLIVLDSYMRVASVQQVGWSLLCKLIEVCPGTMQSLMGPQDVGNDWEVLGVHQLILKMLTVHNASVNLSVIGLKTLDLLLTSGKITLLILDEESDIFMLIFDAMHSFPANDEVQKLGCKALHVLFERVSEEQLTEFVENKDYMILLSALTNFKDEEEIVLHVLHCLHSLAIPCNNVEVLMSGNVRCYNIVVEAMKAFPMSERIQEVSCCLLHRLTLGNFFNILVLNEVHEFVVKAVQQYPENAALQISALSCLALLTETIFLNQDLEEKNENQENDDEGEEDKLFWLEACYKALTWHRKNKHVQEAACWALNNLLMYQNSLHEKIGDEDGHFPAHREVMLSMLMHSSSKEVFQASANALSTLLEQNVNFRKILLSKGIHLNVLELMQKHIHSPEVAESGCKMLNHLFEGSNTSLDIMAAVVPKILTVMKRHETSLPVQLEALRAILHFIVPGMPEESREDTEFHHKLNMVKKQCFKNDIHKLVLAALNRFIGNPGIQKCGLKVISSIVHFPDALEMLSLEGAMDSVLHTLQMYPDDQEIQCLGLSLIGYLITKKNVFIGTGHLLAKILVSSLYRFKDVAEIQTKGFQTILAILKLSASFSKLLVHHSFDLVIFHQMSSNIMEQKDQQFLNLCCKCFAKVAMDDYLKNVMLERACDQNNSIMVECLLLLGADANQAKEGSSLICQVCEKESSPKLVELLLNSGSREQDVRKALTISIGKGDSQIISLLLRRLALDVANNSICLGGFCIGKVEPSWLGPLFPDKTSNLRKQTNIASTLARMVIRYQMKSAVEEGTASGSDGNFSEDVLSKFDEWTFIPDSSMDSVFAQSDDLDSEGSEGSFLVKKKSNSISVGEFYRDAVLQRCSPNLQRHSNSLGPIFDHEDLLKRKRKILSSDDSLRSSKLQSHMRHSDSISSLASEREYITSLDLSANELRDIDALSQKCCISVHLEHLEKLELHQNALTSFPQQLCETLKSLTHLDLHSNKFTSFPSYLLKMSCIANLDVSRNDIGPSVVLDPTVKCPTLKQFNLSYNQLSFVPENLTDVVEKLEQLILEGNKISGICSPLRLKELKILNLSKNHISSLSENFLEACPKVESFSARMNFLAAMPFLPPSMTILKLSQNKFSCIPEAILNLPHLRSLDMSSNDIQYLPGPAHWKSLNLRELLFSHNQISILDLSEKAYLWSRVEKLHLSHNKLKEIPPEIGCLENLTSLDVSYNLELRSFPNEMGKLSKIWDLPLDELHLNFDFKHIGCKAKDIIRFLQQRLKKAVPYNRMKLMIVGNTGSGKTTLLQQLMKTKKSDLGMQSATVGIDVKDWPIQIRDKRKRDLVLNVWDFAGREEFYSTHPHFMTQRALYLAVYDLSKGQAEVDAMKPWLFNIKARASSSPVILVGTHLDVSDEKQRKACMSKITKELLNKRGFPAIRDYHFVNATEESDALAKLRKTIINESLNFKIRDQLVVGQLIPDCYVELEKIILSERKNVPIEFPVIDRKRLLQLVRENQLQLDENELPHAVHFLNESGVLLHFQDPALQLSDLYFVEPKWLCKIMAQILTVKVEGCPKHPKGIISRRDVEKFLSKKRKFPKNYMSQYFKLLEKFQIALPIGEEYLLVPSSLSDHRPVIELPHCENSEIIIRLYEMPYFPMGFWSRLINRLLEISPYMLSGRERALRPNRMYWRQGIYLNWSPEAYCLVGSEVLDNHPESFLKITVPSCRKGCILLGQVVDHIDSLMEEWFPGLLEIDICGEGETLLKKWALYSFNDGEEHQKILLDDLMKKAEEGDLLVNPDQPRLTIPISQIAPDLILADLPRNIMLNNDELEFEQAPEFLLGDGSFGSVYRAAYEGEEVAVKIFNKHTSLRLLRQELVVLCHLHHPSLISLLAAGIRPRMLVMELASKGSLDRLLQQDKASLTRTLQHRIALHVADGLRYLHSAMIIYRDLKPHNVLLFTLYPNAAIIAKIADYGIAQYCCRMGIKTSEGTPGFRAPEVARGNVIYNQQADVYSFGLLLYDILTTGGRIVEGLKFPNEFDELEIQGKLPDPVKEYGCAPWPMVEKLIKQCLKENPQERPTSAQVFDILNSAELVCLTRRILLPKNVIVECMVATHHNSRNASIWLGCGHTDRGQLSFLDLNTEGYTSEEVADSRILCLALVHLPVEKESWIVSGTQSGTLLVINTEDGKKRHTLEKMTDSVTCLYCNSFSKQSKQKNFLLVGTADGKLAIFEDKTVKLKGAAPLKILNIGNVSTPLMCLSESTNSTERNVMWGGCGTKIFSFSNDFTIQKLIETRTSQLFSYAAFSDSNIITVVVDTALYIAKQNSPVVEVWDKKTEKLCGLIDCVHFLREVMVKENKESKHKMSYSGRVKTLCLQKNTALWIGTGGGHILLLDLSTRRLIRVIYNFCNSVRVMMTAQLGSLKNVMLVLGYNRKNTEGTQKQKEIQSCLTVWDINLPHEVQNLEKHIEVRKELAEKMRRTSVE
- Assay details: Full length G2019 human LRRK2 inhibition mass spectrometry assay
- Format: biochemical
- Stated conditions: Full length Flag-LRRK2, 25 uM LRRKtide, 2 mM ATP; read-out: Full length G2019 human LRRK2 Inhibition mass spectrometry assay (pIC50) (converted)
# reported IC50; entries follow
Endpoint label: IC50

Compound | Endpoint label | Reported result
COc1nc(N2CC(O)C2)cc(-n2ncc3cc(C)c(C4CN(C)CCO4)cc32)n1 (single isomer, unassigned) | IC50 | 0.251 µM
Cc1nc(-n2ncc3cc(C)c(C4CCN(C5COC5)CC4F)cc32)cc([C@H]2C[C@@H](O)C2)n1 (single isomer, unassigned) | IC50 | ≤ 10 µM
COc1nc(N2CCO[C@@H](CO)C2)cc(-n2ncc3cc(C)c(C4CCN(C5COC5)CC4F)cc32)n1 (single isomer, unassigned) | IC50 | 0.00794 µM
Cc1nc(N2CC(O)C2)cc(-n2ncc3cc(C)c(C4CCN(C5COC5)CC4F)cc32)n1 (single isomer, unassigned) | IC50 | ≤ 10 µM
COc1nc(N2CC(C)(O)C2)cc(-n2ncc3cc(C)c(C4CCN(C5COC5)CC4)cc32)n1 | IC50 | ≤ 10 µM
